# assay-name: Maximum Tolerated Dose in healthy mice
# Assay type: in vivo
# experimental-conditions: single administration in mice, healthy animals, 14 days post-injection
Assign MTD index to each entry below.
One number for each entry, in mg/kg.

Example compounds with recorded MTD index:
CC1CC2(NC(=O)CS2)C2(O)OC3CC4(C=O)C(CCC5C4CCC4(C)C(C6=CC(=O)OC6)CCC54O)CC3OC2O1 (stereo not drawn) [2″oxo-voruscharin, 2″ oxo-voruscharin] ... 20
CC1CC2(NC(CC(=O)c3ccccc3)CS2)C2(O)OC3CC4(CO)C(CCC5C4CCC4(C)C(C6=CC(=O)OC6)CCC54O)CC3OC2O1 (single isomer, unassigned) [Compound H] ... 80
CC1CC2(NC(=O)CS2)C2(O)OC3CC4(CO)C(CCC5C4CCC4(C)C(C6=CC(=O)OC6)CCC54O)CC3OC2O1 (stereo not drawn) [Compound B] ... 80
CC1CC2(NC(CC(=O)c3ccccc3)CS2)C2(O)OC3CC4(CO)C(CCC5C4CCC4(C)C(C6=CC(=O)OC6)CCC54O)CC3OC2O1 (single isomer, unassigned) [Compound I] ... 80

Next compound, please.
Reported MTD index for CC1CC2(N=CCS2)C2(O)OC3CC4(CO)C(CCC5C4CCC4(C)C(C6=CC(=O)OC6)CCC54O)CC3OC2O1 (stereo not drawn) [Compound D] was 10

---

# Tested on: LoVo
# assay-name: MTT test, overall cell growth
# Assay type: cell-based, human
# experimental-conditions: 72 hours of incubation
property-measured: IC50

Example compounds with recorded IC50:
CC1CC2(N=CCS2)C2(O)OC3CC4(CO)C(CCC5C4CCC4(C)C(C6=CC(=O)OC6)CCC54O)CC3OC2O1 (stereo not drawn) ... 1 to 5 nM
CC1CC2(NC(CC(=O)c3ccccc3)CS2)C2(O)OC3CC4(CO)C(CCC5C4CCC4(C)C(C6=CC(=O)OC6)CCC54O)CC3OC2O1 (single isomer, unassigned) [Compound H] ... 10 to 50 nM

Next compound, please.
Reported IC50 for CC(=O)OCC12CC3OC4(O)C(OC(C)CC45NC(=O)CS5)OC3CC1CCC1C2CCC2(C)C(C3=CC(=O)OC3)CCC12O (stereo not drawn) was 1000 to 5000 nM

---

Assign pIC50 to each entry below.
# System: HCT-15
# assay-name: MTT test, overall cell growth
# Format: cell-based, human
# experimental-conditions: HCT-15, MTT, 72 hours of incubation; read-out: IC50 value
# Method: In order to characterize the in vitro activities of the compounds according to the invention, MTT tests were carried out. […] The amount of formazan obtained at the end of the experiment is measured with a spectrophotometer and is directly proportional to the number of living cells. Determination of the optical density enables a quantitative measurement of the effect of the investigated compounds as compared to the control condition (untreated cells) and to compare it to other reference compound. […]
pIC50: −log10 of the molar value.

CC(=O)OCC12CC3OC4(O)C(OC(C)CC45NC(=O)CS5)OC3CC1CCC1C2CCC2(C)C(C3=CC(=O)OC3)CCC12O (stereo not drawn) ... 5.30 to 6.00
CC1CC2(NC(CC(=O)c3ccccc3)CS2)C2(O)OC3CC4(CO)C(CCC5C4CCC4(C)C(C6=CC(=O)OC6)CCC54O)CC3OC2O1 (single isomer, unassigned) [Compound I] ... 7.30 to 8.00

Reported pIC50 for CC1CC2(N=CCS2)C2(O)OC3CC4(CO)C(CCC5C4CCC4(C)C(C6=CC(=O)OC6)CCC54O)CC3OC2O1 (stereo not drawn) was 7.30 to 8.00
